# test_name: Liquid-liquid separation of cyclohexanone from cyclohexane, distribution coefficient by gas chromatography
# assay_conditions: concentration in extracting solvent phase divided by concentration in cyclohexane phase; 1 mL stock solution + 1 mL extracting solvent
property_label: Cyclohexanone D (distribution coefficient)

>>> recorded_measurement("C[S+](C)[O-] [Example 14, dimethyl sulfoxide, reference compound]")
2.80
>>> recorded_measurement("CC[n+]1ccccc1")
3.40
>>> recorded_measurement("CCCC[N+]1(C)CCCC1")
5.00
>>> recorded_measurement("CCCCn1cc[n+](C)c1 [Example 4]")
1.51
>>> recorded_measurement("O [Example 1, H2O, reference compound]")
0.34
>>> recorded_measurement("C[N+](C)(C)CCO")
3.00

1: CCCC[n+]1ccn(C)c1
2: C[N+]1(CCCCS(=O)(=O)O)CCCC1
3: CCCCn1cc[n+](C)c1 [Example 6]
query: Parameters: sort_field (Cyclohexanone D (distribution coefficient)), sort_dir (desc). Order the labels as requested and list them.
result: 3, 1, 2
(3: 4.38, 1: 2.11, 2: 0.21)

---

# test_name: Liquid-liquid separation of cyclohexanol from cyclohexane, distribution coefficient by gas chromatography
# Assay type: physicochemical
# assay_conditions: concentration in extracting solvent phase divided by concentration in cyclohexane phase; 1 mL stock solution + 1 mL extracting solvent
property_label: Cyclohexanol D (distribution coefficient)

See these solved cases before continuing.
>>> recorded_measurement("CCCCn1cc[n+](C)c1 [Example 4]")
2.32
>>> recorded_measurement("O [Example 1, H2O, reference compound]")
0.86
>>> recorded_measurement("C[N+](C)(C)CCO")
2.91
>>> recorded_measurement("CC[n+]1ccccc1")
1.60
>>> recorded_measurement("CCCCn1cc[n+](C)c1 [Example 6]")
4.10

a: CCCC[N+]1(C)CCCC1
b: CCCC[n+]1ccn(C)c1
c: C[S+](C)[O-] [Example 14, dimethyl sulfoxide, reference compound]
query: Arrange the 3 entries by Cyclohexanol D (distribution coefficient) so the values rise. Order the labels as requested and list them.
result: b, a, c
(b: 1.77, a: 5.12, c: 24.79)

---

# test_name: Liquid-liquid separation of cyclohexanol from cyclohexane, distribution coefficient by gas chromatography
# Assay type: physicochemical
# assay_conditions: extracting solvent/cyclohexane; equal volumes
property_label: Cyclohexanol Log D

>>> recorded_measurement("C[N+](C)(C)CCO")
0.46
>>> recorded_measurement("CC[n+]1ccccc1")
0.20
>>> recorded_measurement("C[N+]1(CCCCS(=O)(=O)O)CCCC1")
0.78

A: CCCC[N+]1(C)CCCC1
B: C[S+](C)[O-] [Example 14, dimethyl sulfoxide, reference compound]
query: Which of the two gives a bigger number for Cyclohexanol Log D: A or B ? When you have decided, please share the label of that item.
result: B

The measured values listed here are drawn from patent US7442841B2.
